Target: neurotensin receptors (frozen tissue sections from receptor-positive human tumors) (human) (UniProt P30989)
Sequence (P30989 whole entry): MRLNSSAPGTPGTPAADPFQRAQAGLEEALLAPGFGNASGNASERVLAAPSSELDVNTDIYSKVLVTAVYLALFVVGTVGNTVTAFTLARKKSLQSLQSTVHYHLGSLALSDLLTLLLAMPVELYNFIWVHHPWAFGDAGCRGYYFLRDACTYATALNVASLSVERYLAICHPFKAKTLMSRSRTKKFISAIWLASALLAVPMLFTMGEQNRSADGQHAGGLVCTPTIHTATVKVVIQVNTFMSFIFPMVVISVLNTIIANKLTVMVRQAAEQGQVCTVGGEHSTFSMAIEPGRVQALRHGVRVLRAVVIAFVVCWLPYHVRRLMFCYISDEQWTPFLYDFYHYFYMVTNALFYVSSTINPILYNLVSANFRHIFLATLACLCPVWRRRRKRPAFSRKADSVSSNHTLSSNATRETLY
Assay: competitive binding vs radioiodinated native neurotensin, human tumor sections
[ ]: non-standard residue; d: D form. The star is where a group is joined. Gly(1-amidinopiperidin-4-yl) = N=C(N)N1CCC([C@H](N)C(=O)O)CC1; DTPA = O=C(O)CN(CCN(CC(=O)O)CC(=O)O)CCN(CC(=O)O)CC(=O)*; tBuAla = CC(C)(C)C[C@H](N)C(=O)O; Tle = CC(C)(C)[C@H](N)C(=O)O
Measurement Type: Kd
# output: numeric value plus its unit

[Q] Which Kd value is on record for {DTPA}-[dK]P[Gly(1-amidinopiperidin-4-yl)]RPY[Tle][tBuAla]-OH (SMILES CC(C)(C)C[C@H](NC(=O)[C@@H](NC(=O)[C@H](Cc1ccc(O)cc1)NC(=O)[C@@H]1CCCN1C(=O)[C@H](CCCNC(=N)N)NC(=O)[C@@H](NC(=O)[C@@H]1CCCN1C(=O)[C@@H](CCCCN)NC(=O)CN(CCN(CCN(CC(=O)O)CC(=O)O)CC(=O)O)CC(=O)O)C1CCN(C(=N)N)CC1)C(C)(C)C)C(=O)O) [DTPA-DLys-Pro-Gly(PipAm)-Arg-Pro-Tyr-tBuGly-tBuAla-OH] ?
[A] 7.3 nM
